Data origin, for the record: patent US20100061928A1

# Tested on: grafted B16 F0 murine melanoma tumour
# testDescription: Biodistribution of the ^125I-labelled molecules in the melanoma-bearing mouse (autoradiography of whole-body sections)
# particulars: Sc; 1 H
Where a name gives a salt, the structure may show the parent alone.
Below is a list of entries, each paired with its recorded Biodistribution, Mean, Sc value.
Give only the figure.

For orientation, consider the following solved cases.
{"compound": "CCN(CC)CCNC(=O)c1cnc2cc(I)ccc2n1.Cl.Cl", "Biodistribution, Mean, Sc": 24.33}
{"compound": "CCCN(CCC)CCCCNC(=O)c1ccc2cc(I)ccc2n1 [compound 49, dihydrochloride]", "Biodistribution, Mean, Sc": 25.53}
{"compound": "CCN(CC)CCNC(=O)c1ccc2cncc(I)c2n1.Cl.Cl", "Biodistribution, Mean, Sc": 17.58}
{"compound": "CCN(CC)CCNC(=O)c1cc2c(I)cccc2cn1 [compound 39, dihydrochloride]", "Biodistribution, Mean, Sc": 23.01}
{"compound": "CCN(CC)CCNC(=O)c1cccc2cc3cc(I)ccc3nc12 [compound 111, dihydrochloride]", "Biodistribution, Mean, Sc": 10.16}

Could you now consider this next compound?
(Q) Short answer please: Biodistribution, Mean, Sc, grafted B16 F0 murine melanoma tumour, entry CCN(CC)CCNC(=O)c1c[nH]c2ccc(I)cc2c1=O [compound 35, dihydrochloride]
(A) 12.74

###

# Test system: grafted B16 F0 murine melanoma tumour
# testDescription: Biodistribution of the ^125I-labelled molecules in the melanoma-bearing mouse (autoradiography of whole-body sections)
# particulars: lungs; 3 H
Counter-ions that a name gives are not always drawn.
Hi! Could you tag entries with Biodistribution, Mean, lungs below 3 as y, and those at or above as n? Much appreciated.

Reference set (4 entries):
{"compound": "CCN(CC)CCNC(=O)c1ccc2cncc(I)c2n1.Cl.Cl", "classLabel": "y"}
{"compound": "CCN(CC)CCNC(=O)c1cc2c(I)cccc2cn1 [compound 39, dihydrochloride]", "classLabel": "y"}
{"compound": "CCN(CC)CCNC(=O)c1cnc2cc(I)ccc2n1.Cl.Cl", "classLabel": "n"}
{"compound": "CCCN(CCC)CCCCNC(=O)c1ccc2cc(I)ccc2n1 [compound 49, dihydrochloride]", "classLabel": "n"}

(Q) # strict comparison: is reported Biodistribution, Mean, lungs < 3? input = CCN(CC)CCNC(=O)c1c[nH]c2ccc(I)cc2c1=O [compound 35, dihydrochloride]
(A) y

(Q) # strict comparison: is reported Biodistribution, Mean, lungs < 3? input = CCN(CC)CCNC(=O)c1cccc2cc3cc(I)ccc3nc12 [compound 111, dihydrochloride]
(A) y

###

Below is a list of entries, each paired with its recorded Biodistribution, Mean, brain value.
# Tested on: grafted B16 F0 murine melanoma tumour
# testDescription: Biodistribution of the ^125I-labelled molecules in the melanoma-bearing mouse (autoradiography of whole-body sections)
# particulars: brain; 3 H
Where a name gives a salt, the structure may show the parent alone.
Give only the figure.

For orientation, consider the following solved cases.
{"molecule": "CCN(CC)CCNC(=O)c1cccc2c(Nc3ccc(NS(C)(=O)=O)cc3OC)c3cc(I)ccc3nc12 [compound 129, dihydrochloride]", "Biodistribution, Mean, brain": 0.03}
{"molecule": "CCN(CC)CCNC(=O)c1cccc2cc3cc(I)ccc3nc12 [compound 111, dihydrochloride]", "Biodistribution, Mean, brain": 0.27}
{"molecule": "CCN(CC)CCNC(=O)c1cc2c(I)cccc2cn1 [compound 39, dihydrochloride]", "Biodistribution, Mean, brain": 0.09}

(Q) Sample CCN(CC)CCNC(=O)c1cnc2cc(I)ccc2n1.Cl.Cl [compound 46] — what was its Biodistribution, Mean, brain?
(A) 1.03
